System: dengue virus type 1
Assay: Activity of dengue virus 1 recombinant NS3 protease expressed in Escherichia coli C41(DE3) by fluorogenic assay
Non-standard residues stand in square brackets, D forms with d. Residues, ends and D or L forms follow the SMILES beside them. Tyr(3-NO2) = N[C@@H](Cc1ccc(O)c([N+](=O)[O-])c1)C(=O)O; 2Abz = Nc1ccccc1C(=O)O
readout: Km (µM)

Take a look at these entries with their results.
- compound: "C[C@H](NC(=O)c1ccccc1N)C(=O)NCC(=O)N1CCC[C@H]1C(=O)N[C@@H](CC(N)=O)C(=O)N[C@@H](Cc1ccc(O)c([N+](=O)[O-])c1)C(N)=O (H-[2Abz]AGPN[Tyr(3-NO2)]-NH2)"
  measured_number: 12.6
- compound: "C[C@@H](O)[C@H](NC(=O)[C@H](Cc1c[nH]c2ccccc12)NC(=O)[C@H](CC(N)=O)NC(=O)c1ccccc1N)C(=O)N[C@@H](CC(N)=O)C(=O)N[C@@H](Cc1ccc(O)c([N+](=O)[O-])c1)C(N)=O (H-[2Abz]NWTN[Tyr(3-NO2)]-NH2)"
  measured_number: 13.7

1 = C[C@H](NC(=O)c1ccccc1N)C(=O)N1CCC[C@H]1C(=O)N[C@@H](CS)C(=O)N[C@@H](CC(N)=O)C(=O)N[C@@H](Cc1ccc(O)c([N+](=O)[O-])c1)C(N)=O (H-[2Abz]APCN[Tyr(3-NO2)]-NH2)
2 = CSCC[C@H](NC(=O)[C@H](C)NC(=O)[C@H](C)NC(=O)[C@H](CO)NC(=O)c1ccccc1N)C(=O)N[C@@H](Cc1ccc(O)c([N+](=O)[O-])c1)C(N)=O (H-[2Abz]SAAM[Tyr(3-NO2)]-NH2)
# returns the entry with the larger Km; inputs 1 and 2 Your choice should be expressed through its label. 2
(2: 16.3 µM, 1: 11.4 µM)
